All figures here come from patent US10064954B2.

- method: Solubility of marketed Drug Products: cyclodextrin to drug ratio
- testParameters: CD = hydroxypropyl-β-cyclodextrin
Counter-ions that a name gives are not always drawn.
measurementName: CD/D (mol/mol)
The answer is to be given in mol/mol; state only the numeric part.

Query block: Which measured CD/D (mol/mol) value corresponds to CNC(=C[N+](=O)[O-])NCCSCc1ccc(CN(C)C)o1 [Ranitidine HCl] ?
Result block: 14.5

----------
- method: Solubility of marketed Drug Products: cyclodextrin to drug ratio
- testParameters: CD = hydroxypropyl-β-cyclodextrin
Counter-ions that a name gives are not always drawn.
Hi! Just check whether CD/D (mol/mol) is below 20 mol/mol. Below gives rule met, equal or above gives rule not met.

Query block: Does the reported CD/D (mol/mol) of "CN1C(=O)CN=C(c2ccccc2)c2cc(Cl)ccc21" stay below 20 mol/mol?
Result block: rule met

Query block: Does the reported CD/D (mol/mol) of CC(C)NCC(O)COc1cccc2ccccc12 (stereo not drawn) stay below 20 mol/mol?
Result block: rule met

Query block: Does the reported CD/D (mol/mol) of CN(Cc1cnc2nc(N)nc(N)c2n1)c1ccc(C(=O)N[C@@H](CCC(=O)O)C(=O)O)cc1 [Methotrexate] stay below 20 mol/mol?
Result block: rule met

Query block: Does the reported CD/D (mol/mol) of "O=C(CCCN1CCC(O)(c2ccc(Cl)cc2)CC1)c1ccc(F)cc1" stay below 20 mol/mol?
Result block: rule not met

Query block: Does the reported CD/D (mol/mol) of CCCCCCCCCCNCCN[C@@]1(C)C[C@H](O[C@H]2[C@H](Oc3c4cc5cc3Oc3ccc(cc3Cl)[C@@H](O)[C@@H](NC(=O)[C@@H](CC(C)C)NC)C(=O)N[C@@H](CC(N)=O)C(=O)N[C@H]5C(=O)N[C@H]3C(=O)N[C@H](C(=O)N[C@H](C(=O)O)c5cc(O)c(CNCP(=O)(O)O)c(O)c5-c5cc3ccc5O)[C@H](O)c3ccc(c(Cl)c3)O4)O[C@H](CO)[C@@H](O)[C@@H]2O)O[C@@H](C)[C@H]1O [Telavancin HCl] stay below 20 mol/mol?
Result block: rule met
